system: Rat Cardiac Contractility; assay: Echocardiography assessment of acute pharmacodynamic effect in rat cardiac contractility (fractional shortening); format: in vivo, Sprague Dawley rats; conditions: oral gavage, plasma concentration vs fractional shortening, 1 and 4 h post-dose
// assign Condition met if IC10 falls strictly below 500 nM, else Condition not met (ties count as Condition not met)

- compound: "C[C@H]1CC[C@H](N2CC(=O)N(Cc3ccc(F)c(F)c3)C3(CN(C=O)C3)C2=O)CC1"
  label_value: "Condition met"
- compound: "C[C@H]1CC[C@H](N2CC(=O)N(Cc3ccc(F)c(F)c3)C3(CN(C(N)=O)C3)C2=O)CC1"
  label_value: "Condition not met"
- compound: "CC(C)N1CC(=O)N(Cc2ccc(C(F)(F)F)cc2)C2(CN(c3cccnn3)C2)C1=O"
  label_value: "Condition met"
- compound: "C[C@H]1CC[C@H](N2CC(=O)N(Cc3ccc(Cl)cc3)C3(CN(C(N)=O)C3)C2=O)CC1"
  label_value: "Condition not met"

* * *

assay: Dog cassette dosing pharmacokinetics; type: in vivo, beagle dogs; details: male, beagle, plasma, IV, read-out: Vss
Below is a list of entries, each paired with its recorded Vd value.

- compound: "CC[C@H]1CC[C@H](N2CC(=O)N(Cc3ccc(F)cc3)C3(CN(C(N)=O)C3)C2=O)CC1 [Compound 2]"
  Vd / L/kg: 1.99
- compound: "C[C@H]1CC[C@H](N2CC(=O)N(Cc3ccc(Cl)cc3)C3(CN(c4cccnn4)C3)C2=O)CC1 [Compound 10]"
  Vd / L/kg: 18.6
- compound: "CC[C@H]1CC[C@H](N2CC(=O)N(Cc3ccc(F)c(F)c3)C3(CN(C(N)=O)C3)C2=O)CC1 [Compound 11]"
  Vd / L/kg: 4.42
- compound: "CCC(CC)N1CC(=O)N(Cc2ccc(F)c(F)c2)C2(CN(c3cccnn3)C2)C1=O [Compound 15]"
  Vd / L/kg: 2.84
- compound: "CC(C)N1CC(=O)N(Cc2ccc(Cl)c(F)c2)C2(CN(c3cccnn3)C2)C1=O [Compound 8]"
  Vd / L/kg: 6.26
- compound: "C[C@H]1CC[C@H](N2CC(=O)N(Cc3ccc(F)cc3)C3(CN(c4cccnn4)C3)C2=O)CC1 [Compound 17]"
  Vd / L/kg: 8.25
- compound: "CC(C)N1CC(=O)N(Cc2ccc(F)c(Cl)c2)C2(CN(c3cccnn3)C2)C1=O [Compound 9]"
  Vd / L/kg: 3.08
- compound: "Cc1cc(CN2C(=O)CN([C@H]3CC[C@H](C)CC3)C(=O)C23CN(C(N)=O)C3)ccc1F [Compound 6]"
  Vd / L/kg: 3.98
- compound: "C[C@H]1CC[C@H](N2CC(=O)N(Cc3ccc(F)c(F)c3)C3(CN(C(N)=O)C3)C2=O)CC1 [Compound 5]"
  Vd / L/kg: 6.17
- compound: "C[C@H]1CC[C@H](N2CC(=O)N(Cc3ccc(Cl)c(F)c3)C3(CN(C(N)=O)C3)C2=O)CC1 [Compound 3]"
  Vd / L/kg: 6.9
- compound: "C[C@H]1CC[C@H](N2CC(=O)N(Cc3ccc(F)c(F)c3)C3(CN(c4cccnn4)C3)C2=O)CC1 [Compound 12]"
  Vd / L/kg: 17.8
- compound: "C[C@H]1CC[C@H](N2CC(=O)N(Cc3ccc(F)c(Cl)c3)C3(CN(C(N)=O)C3)C2=O)CC1 [Compound 7]"
  Vd / L/kg: 6.33
- compound: "CC[C@H]1CC[C@H](N2CC(=O)N(Cc3ccc(Cl)cc3)C3(CN(C(N)=O)C3)C2=O)CC1 [Compound 1]"
  Vd / L/kg: 3.44
- compound: "C[C@H]1CC[C@H](N2CC(=O)N(Cc3ccc(Cl)cc3)C3(CN(C(N)=O)C3)C2=O)CC1 [Compound 18]"
  Vd / L/kg: 4.29
- compound: "CC(C)N1CC(=O)N(Cc2ccc(C(F)(F)F)cc2)C2(CN(c3cccnn3)C2)C1=O [Compound 13]"
  Vd / L/kg: 3.72
- compound: "CC[C@H](C)N1CC(=O)N(Cc2ccc(F)c(F)c2)C2(CN(c3cccnn3)C2)C1=O [Compound 14]"
  Vd / L/kg: 6.44
- compound: "CC[C@H](C)N1CC(=O)N(Cc2ccc(F)c(C)c2)C2(CN(c3cccnn3)C2)C1=O [Compound 16]"
  Vd / L/kg: 7.08

* * *

Below is a list of entries, each paired with its recorded activity at 0 min, 50 µM value.
molecular target: CYP2B6 (Homo sapiens, UniProt P20813); construct: Pooled human microsomes and selective CYP probe substrates were used; from tissue; host or cells: pooled human liver microsomes; assay: Time-dependent inhibition of CYP2B6 in human liver microsomes; format: in vitro ADME; details: pooled human liver microsomes; CYP2B6, 50 μM, human liver microsomes, time zero; read-out: % Activity NADPH T0
Sequence (P20813 whole entry): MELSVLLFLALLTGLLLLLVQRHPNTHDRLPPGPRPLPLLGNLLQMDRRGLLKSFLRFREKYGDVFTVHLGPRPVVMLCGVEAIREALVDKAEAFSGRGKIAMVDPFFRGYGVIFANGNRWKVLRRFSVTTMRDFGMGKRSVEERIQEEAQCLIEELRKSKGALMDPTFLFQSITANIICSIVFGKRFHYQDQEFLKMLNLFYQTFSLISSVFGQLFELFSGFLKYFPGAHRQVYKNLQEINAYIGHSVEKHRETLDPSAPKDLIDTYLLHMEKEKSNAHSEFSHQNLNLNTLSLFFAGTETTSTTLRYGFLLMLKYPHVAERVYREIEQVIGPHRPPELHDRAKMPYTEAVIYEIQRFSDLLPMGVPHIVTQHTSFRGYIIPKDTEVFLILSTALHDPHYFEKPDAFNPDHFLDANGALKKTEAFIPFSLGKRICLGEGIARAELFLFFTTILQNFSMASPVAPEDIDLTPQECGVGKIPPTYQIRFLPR

- compound: "C[C@H]1CC[C@H](N2CC(=O)N(Cc3ccc(F)c(F)c3)C3(CN(C(N)=O)C3)C2=O)CC1"
  reading_unit: "%"
  activity at 0 min, 50 µM: 83
- compound: "C[C@H]1CC[C@H](N2CC(=O)N(Cc3ccc(Cl)cc3)C3(CN(C(N)=O)C3)C2=O)CC1"
  reading_unit: "%"
  activity at 0 min, 50 µM: 76
- compound: "CC(C)N1CC(=O)N(Cc2ccc(Cl)c(F)c2)C2(CN(c3cccnn3)C2)C1=O"
  reading_unit: "%"
  activity at 0 min, 50 µM: 88
- compound: "C[C@H]1CC[C@H](N2CC(=O)N(Cc3ccc(F)c(Cl)c3)C3(CN(C(N)=O)C3)C2=O)CC1"
  reading_unit: "%"
  activity at 0 min, 50 µM: 78
- compound: "Cc1cc(CN2C(=O)CN([C@H]3CC[C@H](C)CC3)C(=O)C23CN(C(N)=O)C3)ccc1F"
  reading_unit: "%"
  activity at 0 min, 50 µM: 87
- compound: "CC(C)N1CC(=O)N(Cc2ccc(C(F)(F)F)cc2)C2(CN(c3cccnn3)C2)C1=O"
  reading_unit: "%"
  activity at 0 min, 50 µM: 90

* * *

molecular target: CYP3A4 (Homo sapiens); construct: Pooled human microsomes and selective CYP probe substrates were used; from tissue; host or cells: pooled human liver microsomes; experiment: Time-dependent inhibition of CYP3A4 in human liver microsomes (testosterone and midazolam probes); assay type: in vitro ADME; conditions: pooled human liver microsomes; CYP3A4-T (testosterone probe substrate), 25 μM, human liver microsomes, time zero; read-out: % Activity NADPH T0
Below is a list of entries, each paired with its recorded activity at 0 min, 25 µM value.
recorded_metric: activity at 0 min, 25 µM (%)

- compound: "CC(C)N1CC(=O)N(Cc2ccc(C(F)(F)F)cc2)C2(CN(c3cccnn3)C2)C1=O"
  quantitative_readout: 74
- compound: "C[C@H]1CC[C@H](N2CC(=O)N(Cc3ccc(F)c(Cl)c3)C3(CN(C(N)=O)C3)C2=O)CC1"
  quantitative_readout: 100
- compound: "C[C@H]1CC[C@H](N2CC(=O)N(Cc3ccc(F)c(F)c3)C3(CN(C(N)=O)C3)C2=O)CC1"
  quantitative_readout: 100
- compound: "C[C@H]1CC[C@H](N2CC(=O)N(Cc3ccc(Cl)cc3)C3(CN(C(N)=O)C3)C2=O)CC1"
  quantitative_readout: 100
- compound: "Cc1cc(CN2C(=O)CN([C@H]3CC[C@H](C)CC3)C(=O)C23CN(C(N)=O)C3)ccc1F"
  quantitative_readout: 95
- compound: "CC(C)N1CC(=O)N(Cc2ccc(Cl)c(F)c2)C2(CN(c3cccnn3)C2)C1=O"
  quantitative_readout: 100

* * *

target: CYP3A4 (Homo sapiens, UniProt P08684); construct: Pooled human microsomes and selective CYP probe substrates were used; from tissue; host or cells: pooled human liver microsomes; assay: Time-dependent inhibition of CYP3A4 in human liver microsomes (testosterone and midazolam probes); type: in vitro ADME; conditions: human, pooled human liver microsomes; CYP3A4-T (testosterone probe substrate), 50 μM, after 30 minutes incubation; read-out: % Activity NADPH T30
Sequence (P08684 whole entry): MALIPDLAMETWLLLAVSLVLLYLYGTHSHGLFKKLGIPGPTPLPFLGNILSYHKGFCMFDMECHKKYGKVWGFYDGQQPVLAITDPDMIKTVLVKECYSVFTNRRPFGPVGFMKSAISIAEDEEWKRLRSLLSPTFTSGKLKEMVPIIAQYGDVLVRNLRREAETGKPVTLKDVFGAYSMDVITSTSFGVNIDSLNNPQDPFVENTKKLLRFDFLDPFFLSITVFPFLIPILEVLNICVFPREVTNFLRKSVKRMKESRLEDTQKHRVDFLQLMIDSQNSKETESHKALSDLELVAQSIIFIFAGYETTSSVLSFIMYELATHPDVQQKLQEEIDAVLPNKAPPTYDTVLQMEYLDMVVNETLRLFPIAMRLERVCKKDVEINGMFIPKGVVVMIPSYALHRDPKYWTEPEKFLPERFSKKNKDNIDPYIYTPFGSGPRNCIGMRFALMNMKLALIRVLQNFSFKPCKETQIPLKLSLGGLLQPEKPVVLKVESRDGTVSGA

- compound: "CC(C)N1CC(=O)N(Cc2ccc(C(F)(F)F)cc2)C2(CN(c3cccnn3)C2)C1=O"
  tested_system: "CYP3A4 (Homo sapiens, UniProt P08684)"
  activity at 30 min, 50 µM / %: 65
- compound: "C[C@H]1CC[C@H](N2CC(=O)N(Cc3ccc(F)c(Cl)c3)C3(CN(C(N)=O)C3)C2=O)CC1"
  tested_system: "CYP3A4 (Homo sapiens, UniProt P08684)"
  activity at 30 min, 50 µM / %: 100
- compound: "CC(C)N1CC(=O)N(Cc2ccc(Cl)c(F)c2)C2(CN(c3cccnn3)C2)C1=O"
  tested_system: "CYP3A4 (Homo sapiens, UniProt P08684)"
  activity at 30 min, 50 µM / %: 100
- compound: "C[C@H]1CC[C@H](N2CC(=O)N(Cc3ccc(F)c(F)c3)C3(CN(C(N)=O)C3)C2=O)CC1"
  tested_system: "CYP3A4 (Homo sapiens, UniProt P08684)"
  activity at 30 min, 50 µM / %: 68
- compound: "Cc1cc(CN2C(=O)CN([C@H]3CC[C@H](C)CC3)C(=O)C23CN(C(N)=O)C3)ccc1F"
  tested_system: "CYP3A4 (Homo sapiens, UniProt P08684)"
  activity at 30 min, 50 µM / %: 63
- compound: "C[C@H]1CC[C@H](N2CC(=O)N(Cc3ccc(Cl)cc3)C3(CN(C(N)=O)C3)C2=O)CC1"
  tested_system: "CYP3A4 (Homo sapiens, UniProt P08684)"
  activity at 30 min, 50 µM / %: 75

Data origin: patent US12286437B2
